Data origin: patent US20150361176A1

# Test System: T1, recombinant human TGF-β RII/Fc chimera protein (human, UniProt P37173 24-159)
# T1 construct: range 24-159; Made in HEK-F cells; Biotinylated where it was put on SA chips, otherwise captured by anti-human IgG; also called human TGFbRII/Fc; hRII-Fc; not shown: Fc region of human IgG1
# T1 sequence (P37173 24-159 limits assumed, change not shown): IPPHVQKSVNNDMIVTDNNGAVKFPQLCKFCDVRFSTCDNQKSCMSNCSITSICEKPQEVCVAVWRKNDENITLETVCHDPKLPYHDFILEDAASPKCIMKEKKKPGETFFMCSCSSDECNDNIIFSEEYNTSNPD
# Protocol Text: SPR Biacore T200, receptor-Fc captured by anti-human IgG, dAb as analyte, 1:1 model
Measured Metric: kon

binder="DOM23h-271-132 (DOM23h-271-123 + C-terminal Alanine + 64R) (VHH, human VH dAb) VHH: EVQLLESGGGLVQPGGSLRLSCAASGSTFTEYRMWWVRQAPGKGLEWVSAIEPIGHRTYYADSVRGRFTISRDNSKNTLYLQMNSLRAEDTAVYYCAKQAPGEKWARRWDLDYWGQGTLVTVSS" measured_metric=kon test_value="1.22e+07 M⁻¹ s⁻¹"
binder="DOM23h-439-35 (VHH, expressed from pC10) VHH: EVQLLESGGGLVQPGGSLRLSCAASGFTFGTDQMWWVRQAPGKGLEFVSRIDSPGGRTYYANSVKGRFTISRDNSKNTLYLQMNSLRAEDTAVYYCAKRQPAGVSGKYVDYWGQGTLVTVSS" measured_metric=kon test_value="2.26e+07 M⁻¹ s⁻¹"
binder="DOM23h-439-44 (DOM23h-439-25 + C-terminal Alanine + 61N64R) (VHH, human VH dAb) VHH: EVQLLESGGGLVQPGGSLRLSCAASGFTFGTEQMWWVRQAPGKGLEFVSRIDSPGGRTYYANSVRGRFTISRDNSKNTLYLQMNSLRAEDTAVYYCAKRRPTGVSGTFYDYWGQGTLVTVSS" measured_metric=kon test_value="2.39e+07 M⁻¹ s⁻¹"
binder="DOM23h-439-42 (DOM23h-439-25 + C-terminal Alanine + 61N) (VHH, human VH dAb) VHH: EVQLLESGGGLVQPGGSLRLSCAASGFTFGTEQMWWVRQAPGKGLEFVSRIDSPGGRTYYANSVKGRFTISRDNSKNTLYLQMNSLRAEDTAVYYCAKRRPTGVSGTFYDYWGQGTLVTVSS" measured_metric=kon test_value="4.09e+07 M⁻¹ s⁻¹"
binder="DOM23h-271-123 (VHH, expressed from pC10) VHH: EVQLLESGGGLVQPGGSLRLSCAASGSTFTEYRMWWVRQAPGKGLEWVSAIEPIGHRTYYADSVKGRFTISRDNSKNTLYLQMNSLRAEDTAVYYCAKQAPGEKWARRWDLDYWGQGTLVTVSS" measured_metric=kon test_value="2.89e+06 M⁻¹ s⁻¹"
binder="DOM23h-439-25 (VHH, expressed from pC10) VHH: EVQLLESGGGLVQPGGSLRLSCAASGFTFGTEQMWWVRQAPGKGLEFVSRIDSPGGRTYYADSVKGRFTISRDNSKNTLYLQMNSLRAEDTAVYYCAKRRPTGVSGTFYDYWGQGTLVTVSS" measured_metric=kon test_value="7.77e+06 M⁻¹ s⁻¹"
binder="DOM23h-439-40 (DOM23h-439-25 + C-terminal Alanine) (VHH, human VH dAb) VHH: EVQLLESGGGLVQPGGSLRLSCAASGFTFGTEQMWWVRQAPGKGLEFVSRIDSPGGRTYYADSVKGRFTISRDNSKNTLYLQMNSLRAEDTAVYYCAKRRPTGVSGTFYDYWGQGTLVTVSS" measured_metric=kon test_value="1.34e+07 M⁻¹ s⁻¹"
binder="DOM23h-271-130 (DOM23h-271-123 + C-terminal Alanine) (VHH, human VH dAb) VHH: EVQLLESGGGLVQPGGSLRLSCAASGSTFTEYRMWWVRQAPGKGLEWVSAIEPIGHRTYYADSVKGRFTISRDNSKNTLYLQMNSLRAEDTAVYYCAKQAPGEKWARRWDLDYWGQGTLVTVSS" measured_metric=kon test_value="2.51e+06 M⁻¹ s⁻¹"
binder="DOM23h-271-133 (DOM23h-271-123 + C-terminal Alanine + 61N64R) (VHH, human VH dAb) VHH: EVQLLESGGGLVQPGGSLRLSCAASGSTFTEYRMWWVRQAPGKGLEWVSAIEPIGHRTYYANSVRGRFTISRDNSKNTLYLQMNSLRAEDTAVYYCAKQAPGEKWARRWDLDYWGQGTLVTVSS" measured_metric=kon test_value="8.47e+06 M⁻¹ s⁻¹"
